assay: AUC in Lewis rat at 1 mg/kg, iv measured up to 24 hrs by LC-MS/MS method; format: ADME, organism-based; set-up: route intravenous, dose 1 mg/kg, time <=24; settings: in vivo
Reported Property: AUC at 24 h (ng·h/mL)
Please state the figure in ng·h/mL; there is no need to write the unit.

INPUT: What does the record list as AUC at 24 h for CCS(=O)(=O)N1CC(CC#N)(n2cc(-c3ncnc4[nH]ccc34)cn2)C1 [BARICITINIB] ?
OUTPUT: 1590

====

experiment: MRT in Lewis rat at 5 mg/kg, po measured up to 24 hrs by LC-MS/MS method; type: ADME, organism-based; settings: in vivo
Reported Property: MRT (h)
Answer with a number only, understood to be in h.

INPUT: Requested read-out: MRT. Entry: `CCS(=O)(=O)N1CC(CC#N)(n2cc(-c3ncnc4[nH]ccc34)cn2)C1`
OUTPUT: 4.36

Data provenance: ChEMBL document CHEMBL4811248
